experiment: Human HepG2 cell viability assay in 384 well format; type: toxicity, cell-based; design: dose 125 nL, time 70.5 hour; concentration not given beside the values; conditions: HepG2 cells, read-out: Inhibition
VALUE_KIND: cytotoxicity at 70.5 h (%)
Give just the number in %; leave the unit off.

Sample answers from the record:
COc1ccc(CN2CCCN(C(=O)C(C)n3ccnc3)CC2)cc1 (stereo unspecified) | -4.32
CC(C)COCCCNC(=O)NC(C)c1ccc(-n2cncn2)cc1 (stereo unspecified) | -3.59
Cc1cccc(Cn2c(=O)[nH]c3csnc3c2=O)c1 | -4.48

Attention now turns to another entry.
Input line: Param item = O=C(CCCN1CCCCC1)NC(C(=O)O)c1cccc(F)c1 (stereo unspecified) ; retrieve measured cytotoxicity at 70.5 h.
Output line: -6.49
